- targetSystem: KRAS G12V (Homo sapiens (Human), UniProt P01116+P62937, G12V)
- Sequence (P01116-2 other isoform, or with tags, fused parts or gaps G12V): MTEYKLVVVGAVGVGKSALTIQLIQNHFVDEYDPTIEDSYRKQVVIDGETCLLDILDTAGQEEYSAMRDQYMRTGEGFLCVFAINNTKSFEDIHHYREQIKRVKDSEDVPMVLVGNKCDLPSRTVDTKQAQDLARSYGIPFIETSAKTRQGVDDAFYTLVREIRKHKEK
- Sequence (P62937 whole entry): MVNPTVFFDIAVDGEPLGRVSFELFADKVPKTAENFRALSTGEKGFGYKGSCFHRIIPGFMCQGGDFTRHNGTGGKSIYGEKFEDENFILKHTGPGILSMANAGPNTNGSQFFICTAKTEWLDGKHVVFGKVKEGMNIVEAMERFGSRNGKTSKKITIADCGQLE
- testSummary: Ras-Raf (BRAF RBD) disruption / FRET / MOA assay, KRAS G12V
- Assay type: biochemical
- assaySetup: read-out: IC50* KRAS G12V FRET data
- Protocol: The purpose of this biochemical assay is to measure the ability of test compounds to facilitate ternary complex formation between a nucleotide-loaded Ras isoform and cyclophilin A; the resulting ternary complex disrupts binding to a BRAF^RBD construct, inhibiting Ras signaling through a RAF effector. Compound is present in plate wells as a 10-point 3-fold dilution series starting at a final concentration of 30 μM. […]
pIC50: −log10 of the molar value.
measuredMetric: pIC50

Below, 6 compounds whose answers are already recorded.
compound="CCn1c(-c2cccnc2[C@H](C)OC)c2c3cc(ccc31)-c1cccc(c1)C[C@H](NC(=O)[C@H](C(C)C)N1CC[C@@]3(CCN(C(=O)C#C[C@@H]4COCCN4C)C3)C1=O)C(=O)N1CCC[C@H](N1)C(=O)OCC(C)(C)C2 (atropisomer, axis not shown)" targetsystem="KRAS G12V (Homo sapiens (Human), UniProt P01116+P62937, G12V)" measuredmetric=pIC50 result="5.00 to 6.00"
compound="C=CC(=O)N1CC2(C1)OCN([C@H](C(=O)N[C@H]1Cc3cccc(c3)-c3ccc4c(c3)c(c(-c3cccnc3[C@H](C)OC)n4CC)CC(C)(C)COC(=O)[C@@H]3CCCN(N3)C1=O)C(C)C)C2=O (atropisomer, axis not shown)" targetsystem="KRAS G12V (Homo sapiens (Human), UniProt P01116+P62937, G12V)" measuredmetric=pIC50 result="5.00 to 6.00"
compound=CCn1c(-c2cccnc2[C@H](C)OC)c2c3cc(ccc31)-c1cc(O)cc(c1)C[C@H](NC(=O)[C@H](C(C)C)N(C)C(=O)[C@H]1CCN(C(=O)C#CCOC)C1)C(=O)N1CCC[C@H](N1)C(=O)OCC(C)(C)C2 targetsystem="KRAS G12V (Homo sapiens (Human), UniProt P01116+P62937, G12V)" measuredmetric=pIC50 result="7.00 to 8.00"
compound=C=CC(=O)N1CC[C@H](C(=O)N(C)[C@H](C(=O)N[C@H]2Cc3cc(O)cc(c3)-c3ccc4c(c3)c(c(-c3cnn5c3[C@@H](OC)CCC5)n4CC)CC(C)(C)COC(=O)[C@@H]3CCCN(N3)C2=O)C(C)C)C1 targetsystem="KRAS G12V (Homo sapiens (Human), UniProt P01116+P62937, G12V)" measuredmetric=pIC50 result="7.00 to 8.00"
compound="C=CC(=O)N1CC[C@H](C(=O)N(C)[C@H](C(=O)N[C@H]2Cc3cccc(c3)-c3ccc4c(c3)c(c(-c3cccnc3[C@H](C)OC)n4CC3COC3)CC(C)(C)COC(=O)[C@@H]3CCCN(N3)C2=O)C(C)C)C1 (atropisomer, axis not shown)" targetsystem="KRAS G12V (Homo sapiens (Human), UniProt P01116+P62937, G12V)" measuredmetric=pIC50 result="5.00 to 6.00"
compound="CCn1c(-c2cccnc2[C@H](C)OC)c2c3cc(ccc31)-c1csc(n1)C[C@H](NC(=O)[C@H](C(C)C)N(C)C(=O)N1CCC3(CC1)CN(C(=O)/C=C/CN(C)C)C3)C(=O)N1CCC[C@H](N1)C(=O)OCC(C)(C)C2 (atropisomer, axis not shown)" targetsystem="KRAS G12V (Homo sapiens (Human), UniProt P01116+P62937, G12V)" measuredmetric=pIC50 result="6.00 to 7.00"

State recorded pIC50 for all listed compounds.
1. C=CC(=O)N1CC[C@H](C(=O)N(C)[C@H](C(=O)N[C@H]2Cc3nc(cs3)-c3ccc4c(c3)c(c(-c3cccnc3[C@H](C)OC)n4CC)CC(C)(C)CCC[C@@H]3CCCN(N3)C2=O)C(C)C)C1 (atropisomer, axis not shown)
2. C=CC(=O)N(C)C[C@@H]1CCN1C(=O)N(C)[C@H](C(=O)N[C@H]1Cc2nc(cs2)-c2ccc3c(c2)c(c(-c2cccnc2[C@H](C)OC)n3CC)CC(C)(C)COC(=O)[C@@H]2CCCN(N2)C1=O)C(C)C (atropisomer, axis not shown)

Result:
< 5.00
5.00 to 6.00

---

- targetSystem: NRAS G12C (Homo sapiens (Human), UniProt P01111+P62937, G12C)
- Sequence (P01111 whole entry G12C): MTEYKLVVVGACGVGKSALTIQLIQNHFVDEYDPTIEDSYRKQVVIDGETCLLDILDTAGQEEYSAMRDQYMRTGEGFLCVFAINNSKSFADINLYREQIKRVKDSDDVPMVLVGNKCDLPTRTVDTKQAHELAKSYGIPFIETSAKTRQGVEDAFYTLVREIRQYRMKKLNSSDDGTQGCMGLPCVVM
- Sequence (P62937 whole entry): as the sequence (P62937 whole entry) above
- testSummary: Ras-Raf (BRAF RBD) disruption / FRET / MOA assay, NRAS G12C
- Assay type: biochemical
- assaySetup: read-out: IC50* NRAS G12C FRET data
Kindly state IC50 for each of the entries shown.

Below, 5 compounds whose answers are already recorded.
compound="CO[C@@H](C)c1ncccc1-c1c2c3cc(ccc3n1CC(F)(F)F)-c1cccc(c1)CN(NC(=O)[C@@H](COC1CN(C(=O)C#CC(C)(C)N(C)C)C1)C(C)C)C(=O)N1CCC[C@H](N1)C(=O)OCC(C)(C)C2 (atropisomer, axis not shown) [Example A601]" measuredmetric=IC50 result="< 10 nM"
compound="C=CC(=O)N1CCN(C(=O)N(C)[C@H](C(=O)N[C@H]2Cc3nc(cs3)-c3ccc4c(c3)c(c(-c3cccnc3[C@H](C)OC)n4CC)CC(C)(C)COC(=O)[C@@H]3CCCN(N3)C2=O)C(C)C)CC12CC2 (atropisomer, axis not shown) [Example A417]" measuredmetric=IC50 result="10 to 100 nM"
compound="C=CC(=O)NC[C@@H]1CCN1C(=O)N(C)[C@H](C(=O)N[C@H]1Cc2nc(cs2)-c2ccc3c(c2)c(c(-c2cccnc2[C@H](C)OC)n3CC)CC(C)(C)COC(=O)[C@@H]2CCCN(N2)C1=O)C(C)C (atropisomer, axis not shown) [Example A422]" measuredmetric=IC50 result="100 to 1000 nM"
compound="C=CC(=O)N1CC2(CCN([C@H](C(=O)N[C@H]3Cc4cc(O)cc(c4)-c4ccc5c(c4)c(c(-c4cccnc4[C@H](C)OC)n5CC)CC(C)(C)COC(=O)[C@@H]4CCCN(N4)C3=O)C(C)C)C2=O)C1 (atropisomer, axis not shown) [Example A294]" measuredmetric=IC50 result="< 10 nM"
compound="C=CC(=O)C1CC[C@H](C(=O)N(C)[C@H](C(=O)N[C@H]2Cc3cc(O)cc(c3)-c3ccc4c(c3)c(c(-c3cnn(C)c3[C@H](C)OC)n4CC)CC(C)(C)COC(=O)[C@@H]3CCCN(N3)C2=O)C(C)C)C1 (some centres unmarked) [Example A166]" measuredmetric=IC50 result="10 to 100 nM"

State recorded IC50 for all listed compounds.
1. CCn1c(-c2cccnc2[C@H](C)OC)c2c3cc(ccc31)-c1csc(n1)C[C@H](NC(=O)[C@H](C(C)C)N1CCC3(CCN(C(=O)C#CC(C)(C)N(C)C)CC3)C1=O)C(=O)N1CCC[C@H](N1)C(=O)OCC(C)(C)C2 (atropisomer, axis not shown) [Example A322]
2. C=CC(=O)N1CC[C@H](C(=O)N(C)[C@H](C(=O)N[C@H]2Cc3cccc(n3)-c3ccc4c(c3)c(c(-c3cccnc3[C@H](C)OC)n4CC)CC(C)(C)COC(=O)[C@@H]3CCCN(N3)C2=O)C(C)C)C1 (atropisomer, axis not shown) [Example A442]
3. C=CC(=O)N1CC[C@H](C(=O)N(C)[C@H](C(=O)N[C@H]2Cc3cccc(c3)-c3ccc4c(c3)c(c(-c3ccccc3[C@H](C)OC)n4CC)CC(C)(C)COC(=O)[C@@H]3CCCN(N3)C2=O)C(C)C)C1 (atropisomer, axis not shown) [Example A114]

Result:
10 to 100 nM
100 to 1000 nM
> 10000 nM

---

- targetSystem: KRAS G13D (Homo sapiens (Human), UniProt P01116+P62937, G13D)
- Sequence (P01116-2 other isoform, or with tags, fused parts or gaps G13D): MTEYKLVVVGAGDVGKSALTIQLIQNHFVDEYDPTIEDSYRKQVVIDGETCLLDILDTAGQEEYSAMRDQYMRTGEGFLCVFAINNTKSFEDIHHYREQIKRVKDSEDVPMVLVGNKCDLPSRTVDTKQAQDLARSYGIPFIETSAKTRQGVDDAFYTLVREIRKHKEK
- Sequence (P62937 whole entry): as the sequence (P62937 whole entry) above
- testSummary: Ras-Raf (BRAF RBD) disruption / FRET / MOA assay, KRAS G13D
- Format: biochemical
- assaySetup: read-out: IC50* KRAS G13D FRET data
pIC50: −log10 of the molar value.
measuredMetric: pIC50

molecule="CCn1c(-c2cccnc2[C@H](C)OC)c2c3cc(ccc31)-c1cccc(c1)C[C@H](NC(=O)[C@H](C(C)C)N1CC[C@@]3(CCN(C(=O)C#C[C@H]4COCCN4C4COC4)C3)C1=O)C(=O)N1CCC[C@H](N1)C(=O)OCC(C)(C)C2 (atropisomer, axis not shown)" targetsystem="KRAS G13D (Homo sapiens (Human), UniProt P01116+P62937, G13D)" result="5.00 to 6.00"

Now look at this entry.
Ask: Return reported pIC50; argument: C=CC(=O)N1CCC[C@@H]2CN(C(=O)N(C)[C@H](C(=O)N[C@H]3Cc4nc(cs4)-c4ccc5c(c4)c(c(-c4cccnc4[C@H](C)OC)n5CC)CC(C)(C)COC(=O)[C@@H]4CCCN(N4)C3=O)C(C)C)C[C@@H]21 (atropisomer, axis not shown)
Result: 5.00 to 6.00
